Tested on: Human immunodeficiency virus
Assay: Antiviral activity against HIV replication in human H9 cells
Format: functional, organism-based
Conditions: Human immunodeficiency virus 1, H9
assayReadout: pEC50
Quick note: pEC50 values are minus log10 of concentrations in mol/L.

Challenge: I have this molecule here, C[C@]12CCC[C@]3(C(=O)OC1)[C@@H]2CC[C@@]12C[C@@H](CC[C@H]13)[C@](C)(O)C2 [NEOTRIPTERIFORDIN] , and I need its recorded pEC50.
Response given: 7.60

Origin of the recorded values: ChEMBL document CHEMBL1221203
